Source listed as patent US20050215470A1.

Molecular target: T1, human bradykinin B1 receptor (human, UniProt P46663 1-353)
T1 sequence (looked up): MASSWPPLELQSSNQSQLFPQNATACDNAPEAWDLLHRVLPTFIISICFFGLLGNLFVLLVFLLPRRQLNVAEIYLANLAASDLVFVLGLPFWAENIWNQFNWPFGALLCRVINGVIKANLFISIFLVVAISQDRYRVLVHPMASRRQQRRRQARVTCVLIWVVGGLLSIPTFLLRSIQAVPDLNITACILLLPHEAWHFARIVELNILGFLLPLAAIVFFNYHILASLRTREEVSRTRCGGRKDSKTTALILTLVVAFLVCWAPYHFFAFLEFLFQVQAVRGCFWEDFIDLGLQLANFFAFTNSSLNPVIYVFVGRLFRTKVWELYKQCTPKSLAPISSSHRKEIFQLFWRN
Experiment: binding affinity (Ki) at the human B1 receptor; assay format not described
Non-standard residues stand in square brackets, D forms with d. No end group written: not given here. Gly(cPent) = N[C@H](C(=O)O)C1CCCC1; Hyp = O=C(O)[C@@H]1C[C@@H](O)CN1; dTic = O=C(O)[C@H]1Cc2ccccc2CN1
Measured attribute: pKi
Please report pKi as the negative decimal logarithm of the molar concentration, giving only the number.

Task item: Need pKi, item Ac-KKRP[Hyp]G[Gly(cPent)]S[dTic][Gly(cPent)] [SEQ ID NO: 37]
Reply: 9.10
